- Tested on: human lung cancer cell line H460
- ASSAY REMARKS: MTT reversal assay with mitoxantrone, parental H460 cells
- Type: cell-based
- ASSAY CONDITIONS: NCI-H460, H460, mitoxantrone alone, Table 1 series, read-out: IC50 ± SD of mitoxantrone
MEASUREMENT LABEL: pIC50
Remember, pIC50 is on a log scale: it is -log10 of the molar concentration.

Task item: What does the data say about its pIC50? Entry: O=C1c2c(O)ccc(O)c2C(=O)c2c(NCCNCCO)ccc(NCCNCCO)c21 [Mitoxantrone]
Reply: 7.14
